Tested on: Escherichia coli TOP10
Assay: shrunken log2 fold change of peptide-encoding DNA abundance (4.5 h post-induction vs induction); higher = less antimicrobial activity (less host growth inhibition)
Settings: time post-induction: 4.5 h; library: site-saturation at positions 5, 18, 19, 20
parameterMeasured: shrunken log2 fold change

                        seq  observedresult
 0  RRIRLRPPRLPRPRPRPRKIPRP           0.103
 1  RRIRFRPPRLPRPRPRPNMLPRP          -0.669
 2  RRIRIRPPRLPRPRPRPLTAPRP         0.00505
 3  RRIRNRPPRLPRPRPRPPGVPRP           0.653
 4  RRIRNRPPRLPRPRPRPQMSPRP         -0.0396
 5  RRIRPRPPRLPRPRPRPCVSPRP         -0.0858
 6  RRIRLRPPRLPRPRPRPGVCPRP           0.195
 7  RRIRFRPPRLPRPRPRPKCLPRP           0.049
 8  RRIRNRPPRLPRPRPRPHNRPRP          0.0237
 9  RRIRDRPPRLPRPRPRPSMWPRP         -0.0184
10  RRIRIRPPRLPRPRPRPSCLPRP          -0.998
11  RRIRCRPPRLPRPRPRPRGTPRP          0.0528
12  RRIRTRPPRLPRPRPRPWGDPRP          -0.273
13  RRIRIRPPRLPRPRPRPCIWPRP          -0.278
14  RRIRCRPPRLPRPRPRPRAWPRP            0.24

---

Test system: Escherichia coli TOP10;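 further: peptides expressed intracellularly from a pBAD plasmid library in pooled LB shake-flask culture, induced with 0.3% L-arabinose, DNA abundance read by NGS, three biological replicates, DESeq2 with apeglm shrinkage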
Assay: shrunken log2 fold change of peptide-encoding DNA abundance (4.5 h post-induction vs induction); higher = less antimicrobial activity (less host growth inhibition)
Settings: time post-induction: 4.5 h; library: site-saturation at positions 5, 18, 19, 20
# shrunken log2 fold change annotations
parameterMeasured: shrunken log2 fold change

                        seq  observedresult
 0  RRIRCRPPRLPRPRPRPGRAPRP           0.453
 1  RRIRTRPPRLPRPRPRPNELPRP         -0.0115
 2  RRIRLRPPRLPRPRPRPMTCPRP          -0.252
 3  RRIRYRPPRLPRPRPRPQMSPRP         -0.0435
 4  RRIRERPPRLPRPRPRPGNYPRP          -0.264
 5  RRIRLRPPRLPRPRPRPKAQPRP        -0.00354
 6  RRIRCRPPRLPRPRPRPFCAPRP        -0.00432
 7  RRIRKRPPRLPRPRPRPSISPRP           0.146
 8  RRIRARPPRLPRPRPRPRGFPRP           0.604
 9  RRIRQRPPRLPRPRPRPYQLPRP        -0.00448
10  RRIRPRPPRLPRPRPRPHTQPRP          0.0349
11  RRIRCRPPRLPRPRPRPMTHPRP          -0.377
12  RRIRYRPPRLPRPRPRPLRAPRP           0.669
13  RRIRPRPPRLPRPRPRPSPNPRP            1.14
14  RRIRPRPPRLPRPRPRPFPPPRP         -0.0227
15  RRIRDRPPRLPRPRPRPSFMPRP           0.147
16  RRIRDRPPRLPRPRPRPYLTPRP         -0.0558
17  RRIRMRPPRLPRPRPRPVMRPRP           0.305
18  RRIRWRPPRLPRPRPRPPSIPRP           0.357
19  RRIRCRPPRLPRPRPRPLHFPRP          -0.131
20  RRIRGRPPRLPRPRPRPMEHPRP           0.171
21  RRIRVRPPRLPRPRPRPGMSPRP           0.303
22  RRIRIRPPRLPRPRPRPFCSPRP          -0.426
23  RRIRLRPPRLPRPRPRPGYTPRP          -0.349
24  RRIRWRPPRLPRPRPRPFYAPRP          -0.174
25  RRIRLRPPRLPRPRPRPFKIPRP        -0.00613
26  RRIRCRPPRLPRPRPRPTVWPRP           0.553
27  RRIRSRPPRLPRPRPRPDGCPRP          0.0344
28  RRIRYRPPRLPRPRPRPYEAPRP          -0.336
29  RRIRYRPPRLPRPRPRPQIQPRP          -0.473
30  RRIRVRPPRLPRPRPRPHWCPRP          -0.144
31  RRIRDRPPRLPRPRPRPMVIPRP          0.0392
